- Tested on: TICs (Ovarian 2393A)
- test_method_notes: Ovarian tumor-initiating cell growth inhibition (Alamar Blue)
- Type: cell-based
- assay_context: 144 h; Ovarian 2393A TICs, 6 days; read-out: Tumor Initiating Cell GI50 Range Ovarain 2393A
observation_type: GI50

{"columns": ["compound", "value"],
 "data": [
  ["O=C(NC(c1ccccc1)C1CC1)c1ccc2[nH]nc(-c3ccc(O[C@H]4C[C@H]5CC[C@@H](C4)N5C4COC4)cc3)c2c1 (stereo partly drawn)", "0.1 to 0.5 µM"],
  ["CC(C)CC(NC(=O)c1ccc2[nH]nc(-c3ccc(O[C@H]4C[C@H]5CC[C@@H](C4)N5C=O)cc3)c2c1)c1ccccn1 (stereo partly drawn)", "< 0.1 µM"]
]}

Here is another compound to look at.
What GI50 value was documented for this compound, CC(C)[C@H](NC(=O)c1ccc2[nH]nc(-c3ccc(OC4CCN(C)CC4)cc3)c2c1)c1ccccc1Cl ?
< 0.1 µM

====

- test_target: human TTK (Homo sapiens, UniProt P33981)
- Construct: amino terminal GST fusion of full length human TTK; purchased Invitrogen
- test_method_notes: TTK inhibition assay (indirect ELISA)
- Type: biochemical
- assay_context: read-out: TTK IC50 Range
Let's look at some compounds and their measured IC50.

Use the examples below as a reference point.
{"columns": ["compound", "IC50"],
 "data": [
  ["CCC(CC)C(NC(=O)c1ccc2[nH]nc(-c3ccc(O[C@H]4C[C@H]5CC[C@@H](C4)N5C=O)cc3)c2c1)c1ccccn1 (stereo partly shown) [Example A342]", "< 100 nM"],
  ["CC1(C)CC(=O)c2cc(-c3n[nH]c4ccc(C(=O)N[C@H](c5ccccn5)C5CC5)cc34)ccc2O1 [Example A236]", "< 100 nM"],
  ["CC(C)[C@H](NC(=O)c1ccc2[nH]nc(-c3ccc(OC4CCN(CCO)CC4)cc3)c2c1)c1ccccc1Cl [Example A232]", "< 100 nM"]
]}

What IC50 value was documented for this compound, CC(C)(O)C1CCN(c2ccc(-c3n[nH]c4ccc(C(=O)N[C@H](c5ccccn5)C5CC5)cc34)cc2)CC1 [Example A351] ?
< 100 nM

====

Let's look at some compounds and their measured IC50.
- test_target: human TTK (Homo sapiens, UniProt P33981)
- Construct: amino terminal GST fusion of full length human TTK; purchased Invitrogen
- Sequence (P33981 1-857): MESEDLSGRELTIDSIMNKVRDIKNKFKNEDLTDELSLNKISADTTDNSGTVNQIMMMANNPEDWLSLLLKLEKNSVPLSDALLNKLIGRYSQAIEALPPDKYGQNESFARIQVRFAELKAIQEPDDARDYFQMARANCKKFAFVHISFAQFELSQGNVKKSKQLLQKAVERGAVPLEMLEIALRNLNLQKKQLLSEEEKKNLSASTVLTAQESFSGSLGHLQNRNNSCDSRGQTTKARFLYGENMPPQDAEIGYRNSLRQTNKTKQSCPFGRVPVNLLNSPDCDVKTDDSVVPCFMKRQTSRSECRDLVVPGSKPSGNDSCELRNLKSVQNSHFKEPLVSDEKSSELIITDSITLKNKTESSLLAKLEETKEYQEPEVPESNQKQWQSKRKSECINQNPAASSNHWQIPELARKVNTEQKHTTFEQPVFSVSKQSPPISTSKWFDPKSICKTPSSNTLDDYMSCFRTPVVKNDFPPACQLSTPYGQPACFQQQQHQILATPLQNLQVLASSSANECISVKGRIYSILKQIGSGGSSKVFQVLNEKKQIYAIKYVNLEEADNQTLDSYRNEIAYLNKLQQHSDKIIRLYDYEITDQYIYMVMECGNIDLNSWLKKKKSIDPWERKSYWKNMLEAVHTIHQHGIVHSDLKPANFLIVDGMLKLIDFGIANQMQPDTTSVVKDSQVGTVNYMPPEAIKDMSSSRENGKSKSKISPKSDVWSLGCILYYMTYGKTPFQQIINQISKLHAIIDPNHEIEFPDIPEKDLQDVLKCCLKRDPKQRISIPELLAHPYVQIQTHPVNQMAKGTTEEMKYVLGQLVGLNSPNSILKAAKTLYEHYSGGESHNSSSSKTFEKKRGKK
- test_method_notes: TTK inhibition assay (indirect ELISA)
- Format: biochemical
- assay_context: read-out: TTK IC50 Range

Use the examples below as a reference point.
{"columns": ["compound", "IC50"],
 "data": [
  ["O=C(N[C@H](c1ccccc1)C1CC1)c1ccc2[nH]nc(-c3ccc(N4CCN(C5COC5)CC4)cc3)c2c1 [Example A399]", "< 100 nM"],
  ["CN1CCC2(CC1)CC(=O)c1cc(-c3n[nH]c4ccc(C(=O)N[C@H](c5ccccc5)C5CC5)cc34)ccc1O2 [Example A251]", "< 100 nM"],
  ["C[C@@H]1C[C@H](Oc2ccc(-c3n[nH]c4ccc(C(=O)NCC5(N6CCOCC6)CCCC5)cc34)cc2)C[C@H](C)O1 [Example A430]", "100 to 500 nM"],
  ["O=C(NC(c1ccccc1)C1CC1)c1ccc2[nH]nc(-c3cccc(N4CCOCC4)c3)c2c1 (stereo not shown) [Example A61]", "100 to 500 nM"],
  ["CC(C)CC(NC(=O)c1ccc2[nH]nc(-c3ccc(OC4CCN(C5COC5)CC4)cc3)c2c1)c1ccccc1Cl (stereo not shown) [Example A355]", "< 100 nM"],
  ["CN1CCC(Oc2ccc(-c3n[nH]c4ccc(C(=O)NCC5(OC6CCCC6)CCCCC5)cc34)cc2)CC1 [Example A442]", "< 100 nM"]
]}

Here is another compound to look at.
What IC50 value was documented for this compound, CN1CCN(c2ccc(-c3n[nH]c4ccc(NC(=O)C(c5ccsc5)N5CCCC5)cc34)cc2)C(=O)C1 (stereo not shown) [Example A94] ?
> 500 nM
